The reader will find reported inhibition values listed item by item below.
molecular target: Nuclear receptor coactivator 1 (Homo sapiens); assay: SRC1 coactivator transcriptional activity inhibitors, confirmation, cell-based, luminescence, quadruplicate (AID 588820); settings: HEK293 GAL4-SRC1 luciferase reporter, at 3.6 µM, hits give high values;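 further: 0% = DMSO wells and 100% = gossypol 36 µM treated wells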
Report the figure in % without appending any unit label.

Query: So what's the measured inhibition for this one? `COc1cc(NS(C)(=O)=O)ccc1Nc1c2ccccc2nc2ccccc12`
Reply: 61.1

Query: So what's the measured inhibition for this one? CC(Oc1ccccc1)C(=O)N1CCC2(CC1)CC(=O)c1ccccc1O2 (stereo unspecified)
Reply: 5.89

Query: So what's the measured inhibition for this one? `COc1ccc(-c2[nH]ncc2CN(C)Cc2nonc2C)c(OC)c1`
Reply: -25

Query: So what's the measured inhibition for this one? `COc1ccc(C(=O)Nc2ccnn2C2CCN(C3CCC3)CC2)cc1`
Reply: -28.9

Query: So what's the measured inhibition for this one? `O=C(Nc1ccc(Oc2ccccc2)cc1)c1ccc2sc([C@H]3C[C@H](O)[C@@H](CO)O3)nc2c1`
Reply: -13.8

Query: So what's the measured inhibition for this one? `C=CCOc1ccccc1CNc1ccc2c(c1)OCCO2`
Reply: -17.1

Query: So what's the measured inhibition for this one? `Cc1ccc2ccc3ccc(C)nc3c2n1`
Reply: 44.8

Query: So what's the measured inhibition for this one? `COc1ccc2c(c1)c(C(=O)CN1CCN(Cc3ccccc3)CC1)c(C)n2C`
Reply: -13.6

====

biological target: Nuclear receptor coactivator 1 (Homo sapiens) (UniProt Q15788); experiment: SRC1 coactivator transcriptional activity inhibitors, confirmation, cell-based, luminescence, quadruplicate (AID 588820); conditions: HEK293 GAL4-SRC1 luciferase reporter, at 3.6 µM, hits give high values;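 further: 0% = DMSO wells and 100% = gossypol 36 µM treated wells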
Sequence (Q15788 whole entry, looked up, the tested form may be a part): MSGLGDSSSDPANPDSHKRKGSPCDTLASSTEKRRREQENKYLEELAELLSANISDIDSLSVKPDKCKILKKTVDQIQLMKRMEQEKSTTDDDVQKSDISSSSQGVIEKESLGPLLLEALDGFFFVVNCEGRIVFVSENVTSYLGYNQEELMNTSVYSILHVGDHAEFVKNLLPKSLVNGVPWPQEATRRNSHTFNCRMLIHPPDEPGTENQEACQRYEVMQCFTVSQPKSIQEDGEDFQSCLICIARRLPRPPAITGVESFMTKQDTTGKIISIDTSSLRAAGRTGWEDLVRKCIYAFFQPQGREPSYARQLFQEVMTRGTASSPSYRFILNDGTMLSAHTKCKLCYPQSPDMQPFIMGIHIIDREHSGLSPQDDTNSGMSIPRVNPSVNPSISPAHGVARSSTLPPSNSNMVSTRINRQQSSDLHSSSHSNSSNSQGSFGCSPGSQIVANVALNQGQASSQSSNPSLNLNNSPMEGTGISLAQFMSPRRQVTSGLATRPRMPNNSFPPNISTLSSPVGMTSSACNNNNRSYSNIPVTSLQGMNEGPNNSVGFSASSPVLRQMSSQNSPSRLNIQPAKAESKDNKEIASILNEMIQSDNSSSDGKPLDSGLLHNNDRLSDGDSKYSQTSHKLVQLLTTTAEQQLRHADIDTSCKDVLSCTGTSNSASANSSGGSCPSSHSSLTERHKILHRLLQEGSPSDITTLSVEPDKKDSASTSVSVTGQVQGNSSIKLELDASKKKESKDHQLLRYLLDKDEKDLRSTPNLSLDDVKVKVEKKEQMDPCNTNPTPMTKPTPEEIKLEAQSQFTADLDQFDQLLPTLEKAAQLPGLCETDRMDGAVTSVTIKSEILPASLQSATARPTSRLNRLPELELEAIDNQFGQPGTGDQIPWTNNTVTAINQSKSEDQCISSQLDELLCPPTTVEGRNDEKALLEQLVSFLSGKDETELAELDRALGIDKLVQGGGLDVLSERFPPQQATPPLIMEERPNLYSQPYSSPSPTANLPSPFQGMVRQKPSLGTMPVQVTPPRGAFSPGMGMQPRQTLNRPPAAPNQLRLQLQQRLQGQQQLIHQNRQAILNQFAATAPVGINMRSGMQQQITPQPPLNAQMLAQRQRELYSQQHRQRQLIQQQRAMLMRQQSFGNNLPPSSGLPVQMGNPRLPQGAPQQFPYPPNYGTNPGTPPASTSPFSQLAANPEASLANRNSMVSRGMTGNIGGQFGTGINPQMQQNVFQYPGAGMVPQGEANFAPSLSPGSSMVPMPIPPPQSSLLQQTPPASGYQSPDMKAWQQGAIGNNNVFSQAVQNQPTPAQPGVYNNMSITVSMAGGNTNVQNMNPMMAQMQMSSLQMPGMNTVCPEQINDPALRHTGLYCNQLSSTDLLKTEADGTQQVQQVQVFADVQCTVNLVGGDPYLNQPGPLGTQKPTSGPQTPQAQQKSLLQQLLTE
assayMetric: inhibition (%)
Report the figure in % without appending any unit label.

CC(C)OCCCn1c(=O)c2ccccc2n2c(CCC(=O)N3CCN(c4ccccn4)CC3)nnc12: -22.8
c1ccc(-c2csc3ncnc(NCCN4CCOCC4)c23)cc1: 27.7
CCN(Cc1ccncc1)C(=O)CC1C(=O)NCCN1Cc1ccc(F)c(F)c1 (stereo unspecified): 30.1

Query: Lab note: need inhibition with Nuclear receptor coactivator 1 (Homo sapiens) (UniProt Q15788) for entry `NC(=O)c1sc2nc3c(c(-c4ccco4)c2c1N)CCC3` , please look it up.
Reply: 52.9

Query: Lab note: need inhibition with Nuclear receptor coactivator 1 (Homo sapiens) (UniProt Q15788) for entry `c1csc(CNc2ncnc3ccc(-c4ccoc4)cc23)c1` , please look it up.
Reply: 34.6

Query: Lab note: need inhibition with Nuclear receptor coactivator 1 (Homo sapiens) (UniProt Q15788) for entry `Cc1ccc(C)c(S(=O)(=O)N2CCN(c3ncnc4sccc34)CC2)c1` , please look it up.
Reply: 57.9

Query: Lab note: need inhibition with Nuclear receptor coactivator 1 (Homo sapiens) (UniProt Q15788) for entry CC1CCc2c(sc(NC(=O)c3cccs3)c2C(=O)O)C1 (stereo unspecified) , please look it up.
Reply: 11.8

Query: Lab note: need inhibition with Nuclear receptor coactivator 1 (Homo sapiens) (UniProt Q15788) for entry `O=C(COC(=O)c1c(Cl)cccc1Cl)Nc1cc(Cl)ccc1Oc1ccccc1` , please look it up.
Reply: -14.1

====

assay: STAT1 signaling activators, confirmation, cell-based, HTS, luciferase reporter (AID 1262); details: NIH 3T3 STAT1-luciferase reporter, IFN-gamma potentiation, luminescence; at 5.7 µM; hits give high values; 100% = IFN-gamma EC80 alone, no compound;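 further: simple ratio to median IFN-gamma plus DMSO wells so 0% means no light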
This is one part of the list.
The reader will find reported activation (% of control) values listed item by item below.
Report the figure in % without appending any unit label.

c1cnc(Nc2nc(-c3ccc4ccccc4c3)cs2)nc1: 208
CCC(=O)NC(=Nc1nc2ccccc2s1)NC(=O)CC: 216
Cc1cc2nc(SCCN3CCOCC3)[nH]c2cc1C: 157
CC(=O)c1sc(N/N=C/c2ccc(C(C)C)cc2)nc1C: 187

Query: So what's the measured activation (% of control) for this one? `CC(=O)Nc1cccc(-c2cnc3ccccc3n2)c1`
Reply: 165

Query: So what's the measured activation (% of control) for this one? `CCn1c(/C=C/c2ccc([N+](=O)[O-])o2)nc2ccccc2c1=O`
Reply: 125

Query: So what's the measured activation (% of control) for this one? `O=C(NCCCn1ccnc1)c1cc(-c2ccccc2)on1`
Reply: 173

Query: So what's the measured activation (% of control) for this one? `COc1cc(/C=N/O)ccc1OCc1ccc([N+](=O)[O-])cc1`
Reply: 234

Query: So what's the measured activation (% of control) for this one? `Cc1cccc(-c2noc(-c3ccc(F)cc3)n2)c1`
Reply: 222

Query: So what's the measured activation (% of control) for this one? `O=C(c1cc(-c2cccs2)on1)N1CCCCC1`
Reply: 184

Query: So what's the measured activation (% of control) for this one? `O=C(Nc1ccc2c(c1)CCC2)c1ccc(Br)s1`
Reply: 236

Query: So what's the measured activation (% of control) for this one? `Cc1ccc(NC(=O)c2csc3c2CCCC3)cc1`
Reply: 202

Query: So what's the measured activation (% of control) for this one? CCOc1ccc2nc(C(=O)N3CCCC(C)C3)sc2c1 (stereo not drawn)
Reply: 217

Query: So what's the measured activation (% of control) for this one? `COc1ccc(/C=N/Nc2nc3ccccc3o2)cc1OC`
Reply: 208

Query: So what's the measured activation (% of control) for this one? `O=C(Nc1ccc(Cl)cn1)c1cnn2cccnc12`
Reply: 171

Query: So what's the measured activation (% of control) for this one? `OCCCN1c2ccccc2Nc2nnc(-c3ccccc3)cc21`
Reply: 177

Query: So what's the measured activation (% of control) for this one? `CCOC(=O)/C(C#N)=C/c1ccc(N2CCCCC2)cc1`
Reply: 155

Query: So what's the measured activation (% of control) for this one? `O=C(Nc1ccc2oc(-c3ccccc3F)nc2c1)c1ccco1`
Reply: 204
